Reference for the values: patent US20260008760A1

study-system: human DPP1 enzyme (Homo sapiens, UniProt P53634)
test-name: Human DPP1 Enzyme Single-Point Percent Inhibition Testing (HL-60 lysate)
Assay type: biochemical
Design: A crude lysate of HL-60 cells (ATCC; Manassas, VA) was used as a source of human DPP1 enzyme; host or cells: HL-60 cells (crude lysate)
assay-conditions: final compound concentration of 10 nM, 400 μM H-Gly-Arg-AMC, n = 1
Sequence (P53634 25-463): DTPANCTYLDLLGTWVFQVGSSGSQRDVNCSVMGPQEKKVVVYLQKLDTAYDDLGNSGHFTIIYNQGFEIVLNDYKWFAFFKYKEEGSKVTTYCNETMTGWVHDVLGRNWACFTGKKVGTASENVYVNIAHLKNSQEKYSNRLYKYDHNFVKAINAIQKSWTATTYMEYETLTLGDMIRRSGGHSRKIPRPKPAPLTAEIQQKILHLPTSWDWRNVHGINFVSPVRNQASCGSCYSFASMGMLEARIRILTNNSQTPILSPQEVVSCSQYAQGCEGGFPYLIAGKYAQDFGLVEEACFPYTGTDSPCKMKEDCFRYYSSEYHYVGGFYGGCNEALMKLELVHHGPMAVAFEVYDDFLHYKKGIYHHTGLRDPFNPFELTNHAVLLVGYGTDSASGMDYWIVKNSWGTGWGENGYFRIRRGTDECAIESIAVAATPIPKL
test-readout: inhibition at 0.01 µM

Some solved cases for reference:
[[record]]
molecule = "CN1CCCC2(C1)C(=O)N(C)c1ccc(-c3ccc(C[C@@H](C#N)NC(=O)[C@@H]4CNCCCCO4)cc3)cc12 (some centres unmarked)"
test_readout = "inhibition at 0.01 µM"
observed_measurement = "≤ 40%"

[[record]]
molecule = "CN1CCC(n2ncc3ccc(-c4ccc(C[C@@H](C#N)NC(=O)[C@@H]5CNCCCCO5)cc4)cc32)CC1"
test_readout = "inhibition at 0.01 µM"
observed_measurement = "≤ 40%"

[[record]]
molecule = "C[C@@H]1NC[C@@H](C(=O)N[C@H](C#N)Cc2ccc(-c3ccc4c(n3)CCCN4)cc2F)OC[C@@H]1O"
test_readout = "inhibition at 0.01 µM"
observed_measurement = "≤ 40%"

[[record]]
molecule = "N#C[C@H](Cc1ccc(-c2ccc(S(=O)(=O)N3CCC3)cc2)cc1)NC(=O)[C@@H]1CNCCCO1"
test_readout = "inhibition at 0.01 µM"
observed_measurement = "≤ 40%"

[[record]]
molecule = "N#C[C@H](Cc1cc2c(cc1F)-c1ccc(F)cc1CO2)NC(=O)[C@@H]1CNCCCCO1"
test_readout = "inhibition at 0.01 µM"
observed_measurement = "≤ 40%"

[[record]]
molecule = "Cc1ncc(C)n2cc(-c3ccc(C[C@@H](C#N)NC(=O)[C@@H]4CN[C@@H](C)[C@H](O)CO4)cc3)cc12"
test_readout = "inhibition at 0.01 µM"
observed_measurement = "≥ 66.7%"


INPUT: For the molecule shown here, N#Cc1ccc2c(c1)COc1cc(C[C@@H](C#N)NC(=O)[C@@H]3CNCCCCO3)c(F)cc1-2 , give the reported inhibition at 0.01 µM.
OUTPUT: 40 to 66.7%

INPUT: For the molecule shown here, COC1CNC[C@@H](C(=O)N[C@H](C#N)Cc2ccc(-c3cc4c(C)ncc(C)n4c3)cc2)OC1 (some centres unmarked) , give the reported inhibition at 0.01 µM.
OUTPUT: ≥ 66.7%

INPUT: For the molecule shown here, Cn1c(=O)oc2cc3c(cc21)-c1cc(F)c(CC(C#N)NC(=O)[C@@H]2CNCCCCO2)cc1OC3 (some centres unmarked) , give the reported inhibition at 0.01 µM.
OUTPUT: ≥ 66.7%

INPUT: For the molecule shown here, CCN1C(=O)Cc2ccc(-c3ccc(C[C@@H](C#N)NC(=O)[C@@H]4CNCC(OC)CO4)c(F)c3)cc21 (some centres unmarked) , give the reported inhibition at 0.01 µM.
OUTPUT: ≥ 66.7%

INPUT: For the molecule shown here, CO[C@@H]1CCNC[C@@H](C(=O)N[C@H](C#N)Cc2ccc(-c3ccn4ccnc4c3)cc2)OC1 , give the reported inhibition at 0.01 µM.
OUTPUT: 40 to 66.7%

====

Parameter inhibition at 0.005 µM: see the listing below.
study-system: DPP1 in HL-60 cells (Homo sapiens)
Sequence (P53634 25-463): as above
test-name: DPP1 Cell Single-Point Percent Inhibition Testing
Type: cell-based
Set-up: host or cells: HL-60 cells
assay-conditions: final compound concentration 5 nM, n = 1

Some solved cases for reference:
[[record]]
compound = "Cc1ncc(C)n2cc(-c3ccc(C[C@@H](C#N)NC(=O)[C@@H]4CNCCCCO4)cc3)cc12 [Compound A137]"
test_readout = "inhibition at 0.005 µM"
observed_measurement = "76.5 to 93.9%"

[[record]]
compound = "CO[C@H]1CCO[C@H](C(=O)N[C@H](C#N)Cc2ccc(-c3cnc4c(n3)CCCC4)cc2F)CNC1 [Compound A97]"
test_readout = "inhibition at 0.005 µM"
observed_measurement = "≤ 76.5%"

[[record]]
compound = "C[C@@H]1NC[C@@H](C(=O)NC(C#N)Cc2cc3c(cc2F)-c2cc4c(cc2CO3)oc(=O)n4C)OC[C@@H]1O (stereo partly shown) [Compound C22]"
test_readout = "inhibition at 0.005 µM"
observed_measurement = "≤ 76.5%"

[[record]]
compound = "N#C[C@H](Cc1ccc(-c2ccc3c(c2)C2(CCN(C4COC4)CC2)OC3)cc1)NC(=O)[C@@H]1CNCCCCO1 [Compound 39]"
test_readout = "inhibition at 0.005 µM"
observed_measurement = "≤ 76.5%"

[[record]]
compound = "CO[C@H]1CCO[C@H](C(=O)N[C@H](C#N)Cc2ccc(-c3ccc4c(n3)CCCN4)cc2F)CNC1 [Compound A95]"
test_readout = "inhibition at 0.005 µM"
observed_measurement = "≤ 76.5%"


INPUT: For the compound shown here, N#C[C@H](Cc1cc2c(cc1F)-c1ccc(F)cc1CO2)NC(=O)[C@@H]1CNCCCCO1 [Compound B30] , give the reported inhibition at 0.005 µM.
OUTPUT: ≤ 76.5%

INPUT: For the compound shown here, CO[C@H]1CCO[C@H](C(=O)NC(C#N)Cc2cc3c(cc2F)-c2cc4c(cc2CO3)oc(=O)n4C)CNC1 (stereo partly shown) [Compound C16] , give the reported inhibition at 0.005 µM.
OUTPUT: ≤ 76.5%

INPUT: For the compound shown here, Cc1cn2cc(-c3ccc(C[C@@H](C#N)NC(=O)[C@@H]4CNCCCO4)c(F)c3)cc2c(C)n1 [Compound A118] , give the reported inhibition at 0.005 µM.
OUTPUT: ≤ 76.5%

INPUT: For the compound shown here, N#C[C@H](Cc1ccc(-c2ccc3c(n2)CCCN3)cc1F)NC(=O)[C@@H]1CNCCCO1 [Compound A119] , give the reported inhibition at 0.005 µM.
OUTPUT: ≤ 76.5%

INPUT: For the compound shown here, N#C[C@H](Cc1ccc(-c2cnc3c(n2)CCCC3)cc1F)NC(=O)[C@@H]1CNCCCCO1 [Compound A115] , give the reported inhibition at 0.005 µM.
OUTPUT: ≤ 76.5%

INPUT: For the compound shown here, COC1CNC[C@@H](C(=O)N[C@H](C#N)Cc2ccc(-c3ccn4ccnc4c3)cc2)OC1 (stereo partly shown) [Compound H40] , give the reported inhibition at 0.005 µM.
OUTPUT: ≤ 76.5%

INPUT: For the compound shown here, C[C@@H]1NC[C@@H](C(=O)N[C@H](C#N)Cc2ccc(-c3cnc4c(n3)CCCC4)cc2F)OC[C@@H]1O [Compound A109] , give the reported inhibition at 0.005 µM.
OUTPUT: ≤ 76.5%

====

study-system: human DPP1 enzyme (Homo sapiens, UniProt P53634)
test-name: Human DPP1 Enzyme IC50 Assay
Format: biochemical
Design: was first proteolytically processed into its mature form using recombinant human cathepsin L; purchased R&D Systems
assay-conditions: activated recombinant human DPP1, 400 μM H-Gly-Arg-AMC, 10 minutes pre-incubation at 37° C., pH 6.0; average of n runs; read-out: Avg. IC50 (Human DPP1 enzyme IC50 value ranges)
Sequence (P53634 25-134 limits assumed): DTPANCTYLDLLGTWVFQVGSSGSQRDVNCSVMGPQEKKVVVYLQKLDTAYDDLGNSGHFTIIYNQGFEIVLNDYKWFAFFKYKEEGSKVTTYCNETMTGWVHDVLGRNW
Sequence (P53634 231-394 limits assumed): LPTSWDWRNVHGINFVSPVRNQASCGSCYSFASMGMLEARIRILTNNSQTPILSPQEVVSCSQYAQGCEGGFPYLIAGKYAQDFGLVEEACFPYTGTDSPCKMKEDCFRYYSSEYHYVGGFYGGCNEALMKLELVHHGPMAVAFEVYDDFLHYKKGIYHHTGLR
Sequence (P53634 395-463 limits assumed): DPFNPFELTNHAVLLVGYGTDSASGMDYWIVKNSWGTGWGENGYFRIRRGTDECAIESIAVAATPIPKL
Parameter IC50: see the listing below.

[[record]]
molecule = "Cc1cn2cc(-c3ccc(C[C@@H](C#N)NC(=O)[C@@H]4CNCCCCO4)c(F)c3)cc2c(C)n1 [Compound A28]"
observed_measurement = "> 15 nM"

[[record]]
molecule = "CO[C@@H]1CCNC[C@@H](C(=O)N[C@H](C#N)Cc2cc3cc(-c4cc5c(C)nc(C)cn5c4)ccc3s2)OC1 (single isomer, unassigned) [Compound A51]"
observed_measurement = "5 to 15 nM"

[[record]]
molecule = "CO[C@@H]1CCNC[C@@H](C(=O)N[C@H](C#N)Cc2ccc(-c3ccc4cnn(C)c4c3)cc2)OC1 [Compound H5]"
observed_measurement = "5 to 15 nM"


INPUT: For the molecule shown here, CO[C@H]1CCO[C@H](C(=O)N[C@H](C#N)Cc2cc3c(cc2F)-c2ccc(C#N)cc2CO3)CNC1 (single isomer, unassigned) [Compound B13] , give the reported IC50.
OUTPUT: < 5 nM

INPUT: For the molecule shown here, N#C[C@H](Cc1ccc(-c2ccc3c(c2)CCNC3=O)cc1)NC(=O)[C@@H]1CNCCCO1 [Compound A2] , give the reported IC50.
OUTPUT: > 15 nM

INPUT: For the molecule shown here, CCN1C(=O)Cc2ccc(-c3ccc(C[C@@H](C#N)NC(=O)[C@@H]4CN[C@@H](C)[C@@H](O)CO4)cc3)cc21 [Compound G9] , give the reported IC50.
OUTPUT: > 15 nM

INPUT: For the molecule shown here, CN1CCN(Cc2ccc(-c3ccc(C[C@@H](C#N)NC(=O)[C@@H]4CNCCCO4)cc3)cc2)CC1 [Compound 9] , give the reported IC50.
OUTPUT: > 15 nM

INPUT: For the molecule shown here, N#Cc1ccc2c(c1)COc1cc(CC(C#N)NC(=O)[C@@H]3CNCCCCO3)c(F)cc1-2 (some centres unmarked) [Compound B7] , give the reported IC50.
OUTPUT: > 15 nM

INPUT: For the molecule shown here, CN1C(=O)C2(CCN(C3CCOCC3)CC2)c2cc(-c3ccc(C[C@@H](C#N)NC(=O)[C@@H]4CNCCCO4)cc3)ccc21 [Compound 35] , give the reported IC50.
OUTPUT: > 15 nM

INPUT: For the molecule shown here, COC1CNC[C@@H](C(=O)N[C@H](C#N)Cc2ccc(-c3ccc4c(F)nn(C)c4c3)cc2)OC1 (some centres unmarked) [Compound A158] , give the reported IC50.
OUTPUT: < 5 nM

INPUT: For the molecule shown here, COC1CNC[C@@H](C(=O)N[C@H](C#N)Cc2cnc(-c3ccc4c(F)nn(C)c4c3)s2)OC1 (some centres unmarked) [Compound A169] , give the reported IC50.
OUTPUT: < 5 nM
